Values compiled from PubChem BioAssay (NCI).

Test system: U251 CNS
Assay: NCI tumour cell line growth inhibition, 48 h
Test readout: TGI (µM)
// units = µM; emit number, no label

Consider the reported TGI for these molecules:
O=C(Nc1ccccc1)Nc1cccc(Oc2nnc(Cl)c3ccccc23)c1 | 5.2
COc1ccc(Oc2nc(C#CC(C)(C)O)nc(Oc3ccc(OC)cc3)n2)cc1 | 15.6
CC(C)C(=O)/C=C/c1ccc(Cl)c(Cl)c1 | 30.7
C[C@]1(O)O[C@@H]2OCC[C@@H]2C2=C1C(=O)c1ccccc1C2=O | 29.8
CN(C)CCCn1c2nc(=O)[nH]c(=O)c-2nc2cc(Cl)c(Cl)cc21 | 10.5
Fc1ccc2[nH]cc(SSc3c[nH]c4ccc(F)cc34)c2c1 | 28

Now for a further molecule.
Data point: CC/C=C/c1cc2cc[nH]c2c2c1C(C)C[C@@H]2C (stereo not given in full) ; TGI = 51.2

* * *

Tested on: A498 renal
Assay: NCI tumour cell line growth inhibition, 48 h
Test readout: TGI (µM)
// units = µM; emit number, no label

Sample `N=c1c2c(=S)n(-c3ccccc3)c(=S)n(-c3ccccc3)c2nc(SCCN2CCOCC2)n1-c1ccccc1` , system: A498 renal. Its TGI is 8.96

* * *

Recorded TGI for the following compounds
Tested on: A549 NSCLC
Assay: NCI tumour cell line growth inhibition, 48 h

Consider the reported TGI for these compounds:
CC(C)(C)[C@H]1CCC2(OCCO2)[C@](O)(CCCO)C1 | > 100 µM
Cc1ccc2c(c1)CNc1ccc(C)cc1CN2 | > 100 µM
CSc1nc2c(=O)n(-c3ccccc3)c(=S)n(-c3ccccc3)c2s1 | > 100 µM
COc1ccccc1/C=C/C(=O)/C=C/c1ccccc1OC | 7 µM
Cc1nnc(-n2c(O)cc(=O)n(-c3ccccc3)c2=S)nc1/C=C/c1ccc(N(C)C)cc1 | > 59 µM
C[C@H](N)C(=O)N1C[C@H](CCCB(O)O)[C@](N)(C(=O)O)C1 | > 100 µM
CC1CCc2sc3[nH]c(=S)n(-c4ccccc4)c(=O)c3c2C1 (stereo unspecified) | > 100 µM
CC(=O)N1c2ccccc2C(C)C1c1[nH]c2ccccc2c1C (stereo unspecified) | 83.2 µM
COc1ccc(/C=C/NC=O)cc1 | > 100 µM
C=C1C(=O)O[C@H]2[C@H]1CC/C(Cn1cc(-c3cc(C)c(C)cc3C)nn1)=C\CC[C@@]1(C)O[C@@H]21 | 4.31 µM

Now for a further compound.
Data point: `CCOC(=O)CSc1[nH]c(NC(=S)Nc2ccccc2)c(C(N)=O)c1C(N)=O` ; TGI = > 10 µM

* * *

Recorded TGI for the following compounds
Test system: CCRF-CEM leukemia
Assay: NCI tumour cell line growth inhibition, 48 h
// units = µM; emit number, no label

CC(=O)OCC1OC(O/C=C(\CN=[N+]=[N-])C(C)=O)C(OC(C)=O)C(OC(C)=O)C1OC(C)=O (stereo not given) | 3.59

Now for a further compound.
Data point: `COc1ccc2c(c1)/C(=N/OC(C)=O)c1c-2c(=O)[nH]c2ccccc12` ; TGI = 23.6

* * *

Recorded TGI for the following compounds
System: NCI-H522 lung
Test: NCI tumour cell line growth inhibition, 48 h
// units = µM; emit number, no label

Sample `NC(=O)c1ccc2nc3c(n2c1)C(=O)C(=O)c1ccccc1-3` , system: NCI-H522 lung. Its TGI is 2.18

Sample COc1cc(C2c3cc4c(cc3[C@@H](Nc3cccc([N+](=O)[O-])c3)C3COC(=O)[C@H]23)OCO4)cc(OC)c1O (stereo not given in full) , system: NCI-H522 lung. Its TGI is 11.7

Sample O=C1CCS/C(=N\S(=O)(=O)c2ccc(N3N=C4c5ccccc5CC4C3c3cccs3)cc2)N1C(=O)c1ccccc1 (stereo not given) , system: NCI-H522 lung. Its TGI is 65.1

* * *

Test system: EKVX NSCLC
Assay: NCI tumour cell line growth inhibition, 48 h; in the data active = GI50 below about 0.43 µM; inactive = the rest
*1 amine or outer side, *2 acyl side, *3 side chain or, on linkers, in order; H or OH if unused. Where a SMILES comes first, the peptide text is derived from it. [ ]: non-standard residue; d: D form. ξ: configuration not given here. X56 = CC[C@H](C)[C@H](OC(=O)[C@@H](C)[C@@H](CC)N[*:1])C(=O)[*:2]; X32 = C[C@H](N[*:1])C(=O)C(C)(C)C(=O)[*:2]; X21 = CC[C@@H](C)C(N[*:1])C(=O)[*:2]; NMeY = CN[C@@H](Cc1ccc(O)cc1)C(=O)O; NMeL = CN[C@@H](CC(C)C)C(=O)O; NMeV = CN[C@H](C(=O)O)C(C)C; ξR = N=C(N)NCCCC(N)C(=O)O; ξI = CCC(C)C(N)C(=O)O; ξL = CC(C)CC(N)C(=O)O; ξK = NCCCCC(N)C(=O)O; ξV = CC(C)C(N)C(=O)O; ξA = CC(N)C(=O)O
Hi there, use one of these labels in your reply, thanks! active, inactive

Sample answers from the record:
COc1cc(OC)c(C(=O)/C=C/c2cccc(OC(C)=O)c2)cc1CC=C(C)C | inactive
CC(=O)OC1Oc2ccccc2-c2oc(=O)c(-c3cc4ccccc4oc3=O)cc21 (centres undefined) | inactive
O=C1CCS/C(=N\S(=O)(=O)c2ccc(N3N=C4c5ccccc5CC4C3c3cccs3)cc2)N1C(=O)c1ccccc1 (centres undefined) | inactive
COC1=C(Br)C(=O)C2=C(C1=O)C1C3=C(C(=O)C=CC3=O)C2c2ccccc21 (centres undefined) | inactive
C[C@H](N)C(=O)N1C[C@H](CCCB(O)O)[C@](N)(C(=O)O)C1 | inactive
COc1ccc2c(c1)/C(=N/OC(C)=O)c1c-2c(=O)[nH]c2ccccc12 | inactive
C=C1C(=O)O[C@H]2[C@H]1CC/C(Cn1cc(-c3cc(C)c(C)cc3C)nn1)=C\CC[C@@]1(C)O[C@@H]21 | inactive
CCOC(=O)c1cc(C(=O)c2cc(OC)c(OC)c(OC)c2)n2ccccc12 | active
COc1ccc2c(c1)C1(C(=O)N2)C(C#N)=C(c2ccccc2)Nc2c1c(-c1ccccc1)nn2-c1ccccc1 (centres undefined) | inactive
Fc1ccc2[nH]cc(SSc3c[nH]c4ccc(F)cc34)c2c1 | inactive

Lookup: Hi team, can someone confirm the assay call for `C1=Nc2ccccc2C=Nc2ccccc2C=Nc2ccccc2C=Nc2ccccc21.[Cl-].[Pt+2]` ?
Found: inactive

Lookup: Hi team, can someone confirm the assay call for CCC(C)C1NC(=O)C(CC(C)C)NC(=O)C(C)NC(=O)C(C(C)C)NC(=O)C(CCCCN)NC(=O)C(CC(C)C)NC(=O)C(C(C)C)NC(=O)[C@H](C)NC(=O)C(C(C)CC)NC(=O)C(CCCN=C(N)N)NC(=O)C(CCCCN)NC(=O)C(CCCN=C(N)N)NC(=O)C(CCCCN)NC(=O)C([C@H](C)CC)NC(=O)C(CCCCN)NC1=O (some centres undefined) (cyclo(A[ξV][ξL][ξK][ξV][ξA][ξL][ξI][ξK][X21][ξK][ξR][ξK][ξR][ξI])) ?
Found: inactive

Lookup: Hi team, can someone confirm the assay call for CC[C@H](C)[C@@H]1OC(=O)[C@@H](C)[C@@H](CC)NC(=O)[C@H](C)NC(=O)C(C)(C)C(=O)[C@H](C)NC(=O)[C@H](Cc2ccc(OC)cc2)N(C)C(=O)[C@H](C(C)C)N(C)C(=O)CNC(=O)[C@H](CC(C)C)N(C)C(=O)CNC1=O (cyclo(A[X56]G[NMeL]G[NMeV][NMeY](Me)[X32])) ?
Found: active

Lookup: Hi team, can someone confirm the assay call for `N#Cc1ccc2c(c1)C(=O)c1c-2n(CCCN)c(=O)c2cc([N+](=O)[O-])ccc12` ?
Found: inactive

* * *

Recorded TGI for the following compounds
Tested on: SK-MEL-2 melanoma
Experiment: NCI tumour cell line growth inhibition, 48 h
// units = µM; emit number, no label

CCOC(=O)C(C(=O)OCC)=C1NC2(c3ccccc3Nc3ccc(C)cc32)C(C(=O)OC)S1 (stereo not given) | 63.1
NC(=O)c1ccc2nc3c(n2c1)C(=O)C(=O)c1ccccc1-3 | 1.91
C=C1C(=O)O[C@@H]2[C@H](O)[C@@H](C)[C@@H]3C=CC(=O)[C@@]3(C)[C@H](OC(=O)C=C(C)C)[C@H]12 | 2.84
O=C(N/N=C\c1ccccc1)Nc1cccc2ccccc12 | 95.3
COc1cc2c(cc1OCCCC(=O)Nc1cc(C(=O)NCCCN(C)C)n(C)n1)N=CC1CCCN1C2=O (stereo not given) | 32.7

Data point: `CN(C)CCCn1c2nc(=O)[nH]c(=O)c-2nc2cc(Cl)c(Cl)cc21` ; TGI = 16.1

Data point: N#CC1C2CCC3(CC2CCN1C(=O)c1ccccc1)OCCO3 (stereo not given) ; TGI = 61.9

Data point: COC1=C(Br)C(=O)C2=C(C1=O)C1C3=C(C(=O)C=CC3=O)C2c2ccccc21 (stereo not given) ; TGI = 61.2
